- systemTested: L-lactate dehydrogenase (Plasmodium falciparum (isolate CDC / Honduras))
- assayComment: PfLDH activity inhibition – cell lysate, 3D7 strain, counter-screen for P. falciparum growth inhibition project (AID 2304);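 further: 0% = vehicle and 100% = reference inhibitor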
- studyConditions: P. falciparum 3D7 crude extract, LDH APAD/NBT absorbance; at 2 µM; active compounds read high
reportedEndpoint: inhibition (%)
Hi! Could you send only the number? It should be in %, unit omitted.

[
  {
    "compound": "COc1ccc2c(NN=Cc3ccccc3F)cc(C)nc2c1",
    "systemTested": "L-lactate dehydrogenase (Plasmodium falciparum (isolate CDC / Honduras))",
    "inhibition / %": 2
  },
  {
    "compound": "COc1ccc2ncc(OC)c(CCN3CC[C@@H](NCc4ccc5c(n4)NC(=O)CS5)[C@H](O)C3)c2n1",
    "systemTested": "L-lactate dehydrogenase (Plasmodium falciparum (isolate CDC / Honduras))",
    "inhibition / %": 4
  },
  {
    "compound": "CCOc1ccc(CCC(=O)O)cc1OCC",
    "systemTested": "L-lactate dehydrogenase (Plasmodium falciparum (isolate CDC / Honduras))",
    "inhibition / %": 6
  },
  {
    "compound": "Cc1[nH]c2ccccc2c(=O)c1Br",
    "systemTested": "L-lactate dehydrogenase (Plasmodium falciparum (isolate CDC / Honduras))",
    "inhibition / %": 3
  },
  {
    "compound": "CC(C)(C)CC(C)(C)c1ccc(O)c(C(=O)Nc2cccc([N+](=O)[O-])c2)c1",
    "systemTested": "L-lactate dehydrogenase (Plasmodium falciparum (isolate CDC / Honduras))",
    "inhibition / %": -8
  },
  {
    "compound": "CN(C)CCc1coc2ccc(C(=O)Nc3ccc(-c4ccc(O)cc4)cc3)cc12",
    "systemTested": "L-lactate dehydrogenase (Plasmodium falciparum (isolate CDC / Honduras))",
    "inhibition / %": -3
  },
  {
    "compound": "c1ccc(CN2CCC(NCc3ccccc3-c3cccc(CNCc4ccc5c(c4)OCO5)c3)CC2)cc1",
    "systemTested": "L-lactate dehydrogenase (Plasmodium falciparum (isolate CDC / Honduras))",
    "inhibition / %": 4
  },
  {
    "compound": "CNc1ccc(CNCc2ccc(-c3ccc(-c4nc5c(C)cccc5[nH]4)s3)cc2)cc1",
    "systemTested": "L-lactate dehydrogenase (Plasmodium falciparum (isolate CDC / Honduras))",
    "inhibition / %": -5
  },
  {
    "compound": "CCCCCCN1CCC(CNCc2cccc(Cl)c2)CC1",
    "systemTested": "L-lactate dehydrogenase (Plasmodium falciparum (isolate CDC / Honduras))",
    "inhibition / %": 1
  }
]

What does the record list as inhibition for CC1CN(c2cc(=O)n(Cc3cccc(NC(=O)Nc4ccc(-c5ccccc5)cc4)c3)cn2)CC(C)N1 (stereo not given) ?
-2
